Test: molar heat capacity at constant pressure
Settings: 331.65 K; 101.33 kPa; Liquid
Some compounds, each annotated with its measured molar heat capacity at constant pressure.
Express your answer in J/K/mol, writing the number without its unit.

Here's what some known entries look like.
| Compound | Value unit | molar heat capacity at constant pressure |
| --- | --- | --- |
| CCCCCCl [1-chloropentane] | J/K/mol | 197.64 |
| CCCCCCCl [1-chlorohexane] | J/K/mol | 228.86 |
| CCCCCCBr [1-bromohexane] | J/K/mol | 230.39 |
| CCCCCCCBr [1-bromoheptane] | J/K/mol | 261.61 |
| CCCCCl [1-chlorobutane] | J/K/mol | 167.29 |

Lab book: molar heat capacity at constant pressure of CCCCCCCCCCCl [1-chlorodecane] noted as 351.31

Consider CCCCCCCCCl [1-chlorooctane] . Its measured molar heat capacity at constant pressure is 289.95

// molar heat capacity at constant pressure value for CCCCBr [1-bromobutane] : 170.09

Entry under test: CCCCCBr [1-bromopentane] . Its molar heat capacity at constant pressure was 200.47

The compound listed as CCCCCCCCl [1-chloroheptane] shows molar heat capacity at constant pressure equal to 258.06

Summary for this compound, CCCCCCCCCCBr [1-bromodecane] : molar heat capacity at constant pressure is 355.32

Notebook: CCCCCCCCCBr [1-bromononane] , molar heat capacity at constant pressure read as 323.32

----------
Assay: molar heat capacity at constant pressure
Details: 346.65 K; 101.33 kPa; Liquid
MET if molar heat capacity at constant pressure is below 200 J/K/mol. NOT MET if not; exact matches included in NOT MET.

| Cpd smiles | Cat |
| --- | --- |
| CCCCCCBr | NOT MET |
| CCCCBr | MET |
| CCCCCCCCCl | NOT MET |
| CCCCCCCCCCCl | NOT MET |
| CCCCCCCCl | NOT MET |
| CCCCCCCl | NOT MET |

Hi there! Is molar heat capacity at constant pressure for CCCCCCCBr below 200 J/K/mol, do you know?
NOT MET

Does this compound meet the criterion molar heat capacity at constant pressure < 200 J/K/mol? CCCCCCCCCBr
NOT MET

Find out if reported molar heat capacity at constant pressure for CCCCCl is less than 200 J/K/mol
MET

Report whether reported molar heat capacity at constant pressure is lower than 200 J/K/mol (strictly) for CCCCCCCCCCBr
NOT MET

----------
Experiment: molar heat capacity at constant pressure
Details: 321.65 K; 101.33 kPa; Liquid
Use 200 J/K/mol as the dividing line for molar heat capacity at constant pressure, with the line itself on the YES side and lower values as NO.

| Cpd smiles | Cat |
| --- | --- |
| CCCCCCCl | YES |

Say whether CCCCCCCBr shows molar heat capacity at constant pressure of 200 J/K/mol or more.
YES

Evaluate CCCCCCCCCCBr : molar heat capacity at constant pressure at minimum 200 J/K/mol?
YES

For this compound, is measured molar heat capacity at constant pressure 200 J/K/mol or higher? CCCCCCBr
YES

molar heat capacity at constant pressure >= 200 J/K/mol for CCCCCCCCl ?
YES

Threshold query (molar heat capacity at constant pressure >= 200 J/K/mol) on CCCCCl
NO

Kindly determine if molar heat capacity at constant pressure recorded for CCCCCCCCCCCl is above or exactly 200 J/K/mol.
YES

Is it the case that CCCCBr has molar heat capacity at constant pressure reaching or exceeding 200 J/K/mol?
NO

Determine whether this compound has molar heat capacity at constant pressure no lower than 200 J/K/mol: CCCCCCCCCl
YES

# check: molar heat capacity at constant pressure of CCCCCCCCCBr is greater than or equal to 200 J/K/mol
YES

Hello, I need to know if CCCBr has measured molar heat capacity at constant pressure not below 200 J/K/mol. Thanks!
NO

Values compiled from the NIST ThermoML archive (doi:10.1021/je049652j).
